Known OD450 of a selection of binders
Target: T1, human MSLN-R1-his protein (human, UniProt Q13421 296-390)
T1 construct: Region 1 of human mesothelin, made in HEK293E cells, His-tagged; also called human MSLN-R1 protein; hMSLN-R1-his; not shown: His tag
T1 chain: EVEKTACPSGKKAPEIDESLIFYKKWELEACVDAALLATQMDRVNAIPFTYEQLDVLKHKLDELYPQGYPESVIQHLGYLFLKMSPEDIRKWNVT
Experiment: ELISA on coated MSLN-R1; antibody 1 nM
// note: answer is a bare numeric in OD450

BINDER | UNIT | OD450
S009-F8-8.22 (antibody, human IgG1, kappa, V domains shown) VH: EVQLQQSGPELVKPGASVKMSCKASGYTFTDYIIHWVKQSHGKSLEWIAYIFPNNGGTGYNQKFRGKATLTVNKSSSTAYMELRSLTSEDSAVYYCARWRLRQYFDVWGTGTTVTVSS VL: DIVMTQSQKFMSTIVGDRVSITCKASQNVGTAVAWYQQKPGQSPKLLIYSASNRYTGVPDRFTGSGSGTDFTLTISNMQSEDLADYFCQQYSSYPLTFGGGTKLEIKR | OD450 | 2.46
S009-F8-5.15 (antibody, human IgG1, kappa, V domains shown) VH: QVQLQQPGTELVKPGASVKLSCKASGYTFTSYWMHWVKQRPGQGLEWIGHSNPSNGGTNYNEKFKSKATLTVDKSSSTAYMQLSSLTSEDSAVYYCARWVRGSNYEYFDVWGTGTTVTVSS VL: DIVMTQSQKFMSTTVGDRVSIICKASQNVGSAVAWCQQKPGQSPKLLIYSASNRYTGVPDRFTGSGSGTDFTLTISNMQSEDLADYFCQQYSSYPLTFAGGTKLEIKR | OD450 | 0.68

As a next step, examine the binder that follows.
Request the reported OD450 associated with S009-F8-29.1 (antibody, human IgG1, kappa, V domains shown) VH: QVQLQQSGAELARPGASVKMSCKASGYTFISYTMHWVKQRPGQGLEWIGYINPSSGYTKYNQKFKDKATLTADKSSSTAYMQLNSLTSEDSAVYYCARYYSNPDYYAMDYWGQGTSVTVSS VL: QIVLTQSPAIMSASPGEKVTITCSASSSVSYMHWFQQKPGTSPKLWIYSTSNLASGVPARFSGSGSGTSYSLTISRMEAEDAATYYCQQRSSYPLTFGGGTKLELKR
0.04
